Values were extracted from ChEMBL document CHEMBL2176989.

assay_summary: Clearance in beagle dog at 1 mg/kg, iv
Assay type: ADME, organism-based, Canis lupus familiaris
Design: dose 1 mg/kg, route intravenous
condition_info: in vivo

{"smiles_repr": "COc1ccc(S(=O)(=O)n2cc(C)c3cc(Cl)cnc32)cc1NC1CCN(C)CC1", "clearance / mL/min/kg": 12}

###

assay_summary: Cmax in fasted Wistar rat at 5 mg/kg, po
Format: ADME, organism-based
Set-up: dose 5 mg/kg, route oral
condition_info: in vivo
readout_type: Cmax (ng/mL)

{"smiles_repr": "COc1ccc(S(=O)(=O)n2cc(C)c3cc(Cl)cnc32)cc1NC1CCN(C)CC1", "readout_type": "Cmax", "readout_value": 156}
